B1: SMTNL2 (parent)
chain: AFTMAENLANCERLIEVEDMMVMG

- Variants of: B1
- method: protein stability index of a GFP-peptide fusion (GPS, HEK-293T) (PSI 1-6); higher = more stable;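 also: lentivirally expressed fusions sorted by FACS into six bins by GFP to DsRed ratio, PSI derived from sequencing read proportions per bin multiplied by bin number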
- study.conditions: c terminus: a fixed tail appended
Please note: 1 (yes) applies when protein stability index is 2 or greater, and 0 (no) applies otherwise.

// below: answered variants
{"mutation.notation": "M23C", "qualitative.label": "1 (yes)"}
{"mutation.notation": "C11L", "qualitative.label": "1 (yes)"}
{"mutation.notation": "M20Q", "qualitative.label": "1 (yes)"}
{"mutation.notation": "A1V", "qualitative.label": "1 (yes)"}
{"mutation.notation": "D19N", "qualitative.label": "1 (yes)"}

# check: protein stability index of E16Q is greater than or equal to 2
0 (no)

# check: protein stability index of F2V is greater than or equal to 2
1 (yes)

# check: protein stability index of T3W is greater than or equal to 2
0 (no)

# check: protein stability index of V22K is greater than or equal to 2
1 (yes)

# check: protein stability index of E12G is greater than or equal to 2
1 (yes)

# check: protein stability index of L8A is greater than or equal to 2
1 (yes)

# check: protein stability index of M4W is greater than or equal to 2
1 (yes)

# check: protein stability index of M20N is greater than or equal to 2
1 (yes)
